Target: BRAF^V600E
Sequence (P28028 whole entry V585E): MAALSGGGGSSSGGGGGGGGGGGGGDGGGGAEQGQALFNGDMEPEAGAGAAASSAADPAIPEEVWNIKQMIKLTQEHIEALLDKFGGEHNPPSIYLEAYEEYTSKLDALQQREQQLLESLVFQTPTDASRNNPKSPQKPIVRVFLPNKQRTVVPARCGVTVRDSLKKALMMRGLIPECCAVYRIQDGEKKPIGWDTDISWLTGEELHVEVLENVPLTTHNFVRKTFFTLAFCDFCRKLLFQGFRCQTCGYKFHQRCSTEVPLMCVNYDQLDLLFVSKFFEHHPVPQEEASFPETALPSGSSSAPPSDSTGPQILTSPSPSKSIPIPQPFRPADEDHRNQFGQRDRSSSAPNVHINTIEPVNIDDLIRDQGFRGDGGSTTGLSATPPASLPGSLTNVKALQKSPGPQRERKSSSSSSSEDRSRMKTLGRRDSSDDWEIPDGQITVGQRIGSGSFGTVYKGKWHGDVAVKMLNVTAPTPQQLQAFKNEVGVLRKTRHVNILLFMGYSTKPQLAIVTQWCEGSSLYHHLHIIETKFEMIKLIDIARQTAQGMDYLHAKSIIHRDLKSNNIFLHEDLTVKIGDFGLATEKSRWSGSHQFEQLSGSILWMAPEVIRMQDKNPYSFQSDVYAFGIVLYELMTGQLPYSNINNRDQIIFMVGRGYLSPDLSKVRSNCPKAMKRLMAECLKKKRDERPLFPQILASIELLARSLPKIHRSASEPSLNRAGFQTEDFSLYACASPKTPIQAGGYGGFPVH
Assay: BRAF^V600E inhibitory assay
pIC50: −log10 of the molar value.
QUANTITY MEASURED: pIC50

What measured pIC50 goes with COc1ccc(C2CC(c3ccc(OCC(=O)Nc4ccc(C5=NNC(c6ccc(Cl)cc6)C5)cc4)cc3)=NN2)cc1 (stereo not shown) ?
7.01

Which pIC50 value is on record for COc1ccc(C2CC(c3ccc(OCC(=O)Nc4ccc(C5=NNC(c6ccc(Br)cc6)C5)cc4)cc3)=NN2)cc1 (stereo not shown) ?
6.90

Look up pIC50: COc1ccc(C2CC(c3ccc(NC(=O)COc4ccc(C5=NNC(c6ccc(OC)c(OC)c6)C5)cc4)cc3)=NN2)cc1 (stereo not shown)
6.97

Need pIC50 of COc1ccc(C2CC(c3ccc(OCC(=O)Nc4ccc(C5=NNC(c6ccc(OC)c(OC)c6)C5)cc4)cc3)=NN2)cc1 (stereo not shown) , thanks.
7.03

* * *

Tested on: MCF-7 (breast cancer cell line)
Test: Antiproliferative assay (MTT), MCF-7
Type: cell-based
Conditions: Homo sapiens, MCF7; read-out: Antiproliferative Activity IC50 ± SEM (µM) MCF-7
QUANTITY MEASURED: IC50 (µM)

(1) COc1ccc(C2CC(c3ccc(OCC(=O)Nc4ccc(C5=NNC(c6ccc(OC)c(OC)c6)C5)cc4)cc3)=NN2)cc1 (centres unmarked) [Compound 12]
(2) O=C(COc1ccc(C2=NNC(c3ccc(Cl)cc3)C2)cc1)Nc1ccc(C2=NNC(c3ccccc3)C2)cc1 (centres unmarked) [Compound 8]
(3) COc1ccc(C2CC(c3ccc(NC(=O)COc4ccc(C5=NNC(c6ccc(Cl)cc6)C5)cc4)cc3)=NN2)cc1 (centres unmarked) [Compound 9]
Place the items in sequence of falling IC50. Answer format: the labels, ordered as requested.
2, 3, 1

(1) COc1ccc(C2CC(c3ccc(OCC(=O)Nc4ccc(C5=NNC(c6ccc(F)cc6)C5)cc4)cc3)=NN2)cc1 (centres unmarked) [Compound 16]
(2) COc1ccc(C2CC(c3ccc(OCC(=O)Nc4ccc(C5=NNC(c6ccc(Br)cc6)C5)cc4)cc3)=NN2)cc1 (centres unmarked) [Compound 14]
Hi team, can someone confirm which has the larger IC50: 1 or 2 ? Thanks. State your choice using its label.
1
(1: 3.5 µM, 2: 1.6 µM)

(a) COc1ccc(C2CC(c3ccc(OCC(=O)Nc4ccc(C5=NNC(c6ccc(C)cc6C)C5)cc4)cc3)=NN2)cc1 (centres unmarked) [Compound 13]
(b) COc1cccc2c1C(=O)c1c(O)c3c(c(O)c1C2=O)C[C@@](O)(C(=O)CO)C[C@@H]3O[C@H]1C[C@H](N)[C@H](O)[C@H](C)O1 [Doxorubicin, reference compound]
Kindly identify the item with the lower IC50 figure among these two: a and b Identify your selection by its label.
b

* * *

Tested on: HT-29 (colon cancer cell line)
Assay: Antiproliferative assay (MTT), HT-29
Type: cell-based
Conditions: Homo sapiens, read-out: Antiproliferative Activity IC50 ± SEM (µM) HT-29
QUANTITY MEASURED: IC50 (µM)

Below, 5 compounds whose answers are already recorded.
Which measured IC50 value corresponds to O=C(COc1ccc(C2=NNC(c3ccc(Cl)cc3)C2)cc1)Nc1ccc(C2=NNC(c3ccc(Cl)cc3)C2)cc1 (stereo not shown) ?
3

# query: IC50 of entry COc1ccc(C2CC(c3ccc(OCC(=O)Nc4ccc(C5=NNC(c6ccc(OC)c(OC)c6)C5)cc4)cc3)=NN2)cc1 (stereo not shown)
1.2

Record request: IC50 value, item COc1ccc(C2CC(c3ccc(OCC(=O)Nc4ccc(C5=NNC(c6ccc(Cl)cc6)C5)cc4)cc3)=NN2)cc1 (stereo not shown)
1.7

Could you share which IC50 value was measured for COc1ccc(C2CC(c3ccc(NC(=O)COc4ccc(C5=NNC(c6ccc(OC)c(OC)c6)C5)cc4)cc3)=NN2)cc1 (stereo not shown) ?
1.3

State the recorded IC50 for this entry: O=C(COc1ccc(C2=NNC(c3ccc(Cl)cc3)C2)cc1)Nc1ccc(C2=NNC(c3ccc(Br)cc3)C2)cc1 (stereo not shown)
3.1

(1) O=C(COc1ccc(C2=NNC(c3ccc(Cl)cc3)C2)cc1)Nc1ccc(C2=NNC(c3ccccc3)C2)cc1 (stereo not shown)
(2) COc1ccc(C2CC(c3ccc(OCC(=O)Nc4ccc(C5=NNC(c6ccc(Br)cc6)C5)cc4)cc3)=NN2)cc1 (stereo not shown)
Could you kindly indicate whether 1 or 2 has the higher IC50 value? # respond with the chosen item's label
1

Just for reference, paper PMC10218941 is where these values come from.
